Provenance of the data: ChEMBL document CHEMBL3217472

tested on: Rattus norvegicus; assay: Antihyperglycemic activity in streptozotocin-induced Sprague-Dawley albino rat diabetic model assessed as reduction of blood glucose AUC (0 to 24 hrs) at 100 mg/kg, po by glucometer relative to control; assay type: functional; set-up: scale not given: the % may be the effect or the level left
Returns: string. Value is satisfied if measured Activity is below 20%, and not satisfied if it is greater than or equal to it.

Exam item: Hello, is Activity of the following compound strictly smaller than 20%? COc1cc(OC)c(CNC(=O)NCc2ccccc2)c(OC)c1
Marked response: satisfied

Exam item: Consider the compound COc1cc(Cl)c(CNC(=O)NCc2cccc([N+](=O)[O-])c2)c(Cl)c1OC . Is its Activity strictly less than 20%?
Marked response: satisfied

Exam item: Strictly below 20%: is that where Activity of CC(=O)Nc1ccc(CNC(=O)NCc2ccccc2)cc1 sits?
Marked response: satisfied

Exam item: is_below(Activity, 20%) for CN(C)C(=N)NC(=N)N ?
Marked response: not satisfied

Exam item: Check if Activity falls below 20% for O=C(NCc1cccc([N+](=O)[O-])c1)NCc1ccccc1[N+](=O)[O-] .
Marked response: not satisfied

Exam item: Please indicate whether the reported Activity of O=C(NCc1ccccc1)NCc1ccc(-c2ccc([N+](=O)[O-])cc2)o1 is strictly below 20%.
Marked response: satisfied

====

biological target: UniProt:P18031; experiment: Inhibition of human recombinant PTP1B using phosphopeptide as substrate after 30 mins by malachite green assay
reportedProperty: IC50 (µM)
Give just the number in µM; leave the unit off.

Exam item: # input molecule: O=C(NCc1cccc([N+](=O)[O-])c1)NCc1ccccc1[N+](=O)[O-] ; wanted: its IC50
Marked response: 7.47

Exam item: If you can, please state the reported IC50 value of COc1cc(OC)c(CNC(=O)NCc2ccccc2)c(OC)c1 .
Marked response: 7.6

Exam item: Sample CC(=O)Nc1ccc(CNC(=O)NCc2ccccc2)cc1 — what was its IC50?
Marked response: 9.39

Exam item: # input molecule: O=C(NCc1cccc([N+](=O)[O-])c1)NCc1ccc(-c2ccc([N+](=O)[O-])cc2)o1 ; wanted: its IC50
Marked response: 8.06

Exam item: Which IC50 is listed for COc1cc(Cl)c(CNC(=O)NCc2cccc([N+](=O)[O-])c2)c(Cl)c1OC ?
Marked response: 9.91

====

molecular target: Tyrosine-protein phosphatase non-receptor type 1 (Homo sapiens); experiment: Inhibition of human recombinant PTP1B using phosphopeptide as substrate at 10 uM after 30 mins by malachite green assay relative to control
Sequence (P18031 whole entry): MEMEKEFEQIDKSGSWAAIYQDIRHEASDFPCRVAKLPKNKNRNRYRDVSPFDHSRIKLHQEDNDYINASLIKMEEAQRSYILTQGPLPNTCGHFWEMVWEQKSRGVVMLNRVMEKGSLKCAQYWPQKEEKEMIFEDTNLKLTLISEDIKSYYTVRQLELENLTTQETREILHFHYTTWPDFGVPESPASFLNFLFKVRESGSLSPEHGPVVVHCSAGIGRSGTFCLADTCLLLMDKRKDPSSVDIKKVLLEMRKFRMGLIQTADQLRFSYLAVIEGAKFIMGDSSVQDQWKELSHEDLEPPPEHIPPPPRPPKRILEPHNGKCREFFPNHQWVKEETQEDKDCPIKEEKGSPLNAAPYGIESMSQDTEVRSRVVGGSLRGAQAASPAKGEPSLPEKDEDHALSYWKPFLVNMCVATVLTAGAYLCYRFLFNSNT
Decide using inhibition: a value greater than or equal to 10% is y, a smaller one is n.

Exam item: Please check the record O=C(NCc1cccc([N+](=O)[O-])c1)NCc1cccc(-c2cccc([N+](=O)[O-])c2)n1 and state if its inhibition is at or above 10%.
Marked response: y

Exam item: Hi team, for COc1cc(Cl)c(CNC(=O)NCc2cccc([N+](=O)[O-])c2)c(Cl)c1OC , is the recorded inhibition at or above 10%?
Marked response: y

Exam item: Can O=C(NCc1cccc([N+](=O)[O-])c1)NCc1ccc(-c2ccc([N+](=O)[O-])cc2)o1 be said to have inhibition at or above 10%?
Marked response: y

Exam item: Confirm if inhibition reported for the compound CC(C)(C)c1cc(CNC(=O)NCc2ccccc2)c(O)c(C(C)(C)C)c1 is 10% or above.
Marked response: y

Exam item: # check: inhibition of O=C(NCc1cccc([N+](=O)[O-])c1)NCc1ccccc1[N+](=O)[O-] is greater than or equal to 10%
Marked response: y

Exam item: For this compound, is measured inhibition 10% or higher? COc1cc(CNC(=O)NCc2cccc([N+](=O)[O-])c2)cc(OC)c1OC
Marked response: n

Exam item: Form field: inhibition at least 10%? Entry: O=C(NCc1ccccc1)NCc1cccc([N+](=O)[O-])c1
Marked response: n

Exam item: State whether the measured inhibition reaches 10%, counting equality as reaching it, for O=C(NCc1ccccc1)NCc1ccc(-c2ccc([N+](=O)[O-])cc2)o1
Marked response: y

Exam item: # check: inhibition of O=C(NCc1cccc(Cl)c1)NCc1cccc([N+](=O)[O-])c1 is greater than or equal to 10%
Marked response: y

Exam item: Hi, just wondering whether CC(=O)Nc1ccc(CNC(=O)NCc2ccccc2)cc1 shows inhibition of 10% or higher.
Marked response: y

Exam item: Check if inhibition >= 10% (inclusive). Item: COc1ccc(CNC(=O)NCc2cccc([N+](=O)[O-])c2)cc1
Marked response: n

Exam item: Is it the case that O=C(NCc1ccccc1)NCc1ccccc1[N+](=O)[O-] has inhibition reaching or exceeding 10%?
Marked response: n

Exam item: Entry O=C(NCc1ccccc1)NCc1ccc([N+](=O)[O-])cc1 : is its inhibition no less than 10%?
Marked response: n

Exam item: Please tell me: is the compound COc1cc(OC)c(CNC(=O)NCc2ccccc2)c(OC)c1 at or over 10% in terms of inhibition?
Marked response: y

Exam item: Record O=C(NCc1ccccc1)NCc1c[nH]c2ccc(Cl)cc12 ; criterion: inhibition no lower than 10%. Met?
Marked response: y

Exam item: Does the reported inhibition for COc1cc(Cl)c(CNC(=O)NCc2ccccc2)c(Cl)c1OC fall at or above the 10% mark?
Marked response: y

Exam item: Could you tell me if the measured inhibition of O=C(NCc1ccccc1)NCc1ccsc1 reaches 10% or more?
Marked response: y

Exam item: Hello, I need to know if COc1cc(CNC(=O)NCc2ccccc2)ccc1O has measured inhibition not below 10%. Thanks!
Marked response: y

Exam item: // inclusive: inhibition at least 10%? input: O=C(NCc1cccc([N+](=O)[O-])c1)NCc1ccco1
Marked response: y

Exam item: Given COc1cc(CNC(=O)NCc2cccc([N+](=O)[O-])c2)cc(OC)c1 , state whether its inhibition is at least 10%.
Marked response: n

Exam item: Say whether Cc1ccc(C(=O)Nc2ccc(S(=O)(=O)O)c3cc(S(=O)(=O)O)cc(S(=O)(=O)O)c23)cc1NC(=O)c1cccc(NC(=O)Nc2cccc(C(=O)Nc3cc(C(=O)Nc4ccc(S(=O)(=O)O)c5cc(S(=O)(=O)O)cc(S(=O)(=O)O)c45)ccc3C)c2)c1 shows inhibition of 10% or more.
Marked response: y
